All figures here come from the nanobody polyreactivity screen of Harvey et al. (2022).

- assay.notes: yeast display, Sf9 membrane polyspecificity reagent, FACS + sequencing; frameworks hold sequencing errors
property.label: polyreactivity (PSR sort gate)

- macromolecule.sequence: "QVQLVDSGGGLVQAGGSLRLSFAASGITFFYYAMGWYRQAPGKERELVAAISTSGGRTYYADSVKGRFTISRDNAKNTVYLQMNSLKPEDTAVYYSAAQSGWLRYYYWGQGTQVTVSS"
  property.label: "polyreactivity (PSR sort gate)"
  val: "high polyreactivity"
- macromolecule.sequence: "QVQLVESGGGLVQAGGSLRLSCAASGITFRVNAMGWYRQAPGKERELVAAISQIGGSTYYADSVKGRFTISRDNAKNTVYLQMNSLKPEDTAVYYCAARRRWYNYNYWGQGTQVTVSS"
  property.label: "polyreactivity (PSR sort gate)"
  val: "high polyreactivity"
- macromolecule.sequence: "QVQLVESGGGLVQAGGSLRLSCAASGYTFDKYAMGWYRPAPGKERELVAAITDGGSTNYADSVKGRFTISRDNAKNTVYLQMNSLKPEDTAVYYCNDELQWEVYYDRYPEYDHWGQGTQVTVSS"
  property.label: "polyreactivity (PSR sort gate)"
  val: "low polyreactivity"
- macromolecule.sequence: "QVQLVESGGGLVQAGCSLRLSCAASGSTFFYYAMGWYRQSPGKERELVARISGGGSTNYADSVKGRFTISRDNAKNTVYLQMNSLKPEDTAVYYCAADRYDYYRYSYGRYGYWGQGTQVTVSS"
  property.label: "polyreactivity (PSR sort gate)"
  val: "high polyreactivity"
- macromolecule.sequence: "QVQLVESGGGLVQAGGSLRLSCAASGIIFYDYAMGGYREAPGKERELVATITRGGGTKYADSVKGRFTISRDNAKNTVYLQMNSLKPEDTAVYYCAADSHGVYEGDYCGQGTQVTVSS"
  property.label: "polyreactivity (PSR sort gate)"
  val: "low polyreactivity"

====

- assay.notes: yeast display, Sf9 membrane polyspecificity reagent, FACS + sequencing; frameworks hold sequencing errors

- macromolecule.sequence: "QVQLVESGGGLVQAGGSLRLSCAASGSTFIYNAMGWYRQAPGKERELVAAISSGGSTYYADSVKGRFTISRDNAKNTVYLQMNSLKPEDTAVYYCNAYRYRHYRVDYWGQGTQVTVSS"
  polyreactivity (PSR sort gate): "low polyreactivity"
- macromolecule.sequence: "QVQLVESGGGLVQAGGSLRLSCAASGSILQPNAMGWYRQAPGKERELVAAISWSGDNTYYADSVKGRFTISRDNAKNTVYLQMNSLKPEDTAVYYCATDADIYFQEYDYWGQGTQVTVSS"
  polyreactivity (PSR sort gate): "low polyreactivity"
- macromolecule.sequence: "QVQLVQSGGGLVQAGGSLRLSCAASGSTFPTNAMGSYRQAPGKERELVAAISSSGGRTYYADSVKGRFTISRDNAKKTDYLQRNSLKPEDTAVYYCAAVWWRAYAVRMYYWGQGTQVTVSS"
  polyreactivity (PSR sort gate): "high polyreactivity"
- macromolecule.sequence: "QVQLVESGGGLVQAGGSLRLSCAASGRIFFHNAMGWYIQAPGKERELVATISWSGSSTYYADSVKGRFTISRDNAKNTVYLQMNSLKPEYTAVYYCNAVYGRFVVLRYDYWGQGTQVTVSS"
  polyreactivity (PSR sort gate): "high polyreactivity"
- macromolecule.sequence: "QVQLVESGGGLVQAGGSLRLSCAASGSIFTLYAMGWYRQAPGKERELVAAITRSGGSTYYADSVKGRFTISRDNAKNTVYLQMNSLKPEDTAVYYCNKATAYGLDYWGQATQVTVSS"
  polyreactivity (PSR sort gate): "high polyreactivity"
- macromolecule.sequence: "QVQLVESGGGLVQAGGSLRLSCAASGFIFARYAMGWYIQAPGKERELVAAITRRGGSTYYADSVKGRFTISRDNAKNTVYLQMNSLKPEDTAVYYCAAVTSTSWGSVSYRYGVGYDYWGQGTQVTVSS"
  polyreactivity (PSR sort gate): "high polyreactivity"
- macromolecule.sequence: "QVQLVESGGGLVQPGGSLRLSCAASGSIFIGYAMGWYRQAPGKERELVASIRNGGSTNYADSVKGRFTISRDNAKNTVYLQMNSLKPEDTAVYYCAGRYPVFLVSFGFDYWGQGTQVTVSS"
  polyreactivity (PSR sort gate): "low polyreactivity"
- macromolecule.sequence: "QVKHVESGGGLVQAGGSLRLSCAASGFTFSYYAMGWFRQAPGKERELVAAITSGGSTYYADYVKGRFTISRDNAKNTVYLQMNSLKPEDTAVYYCNADGWYYPTDDYWGHGTQVTVSS"
  polyreactivity (PSR sort gate): "low polyreactivity"
- macromolecule.sequence: "QVQLVESGGGLVQAGGSLRLSCAASGFTFTYYAMGWYRQAPGKERELVAAISGNGGSTYYADSVKGRFTISRDNAKNTVYLQMNSLKPEDTAVYYCNALPKSVGRWYRGDYWGQGTQVTVSS"
  polyreactivity (PSR sort gate): "high polyreactivity"
- macromolecule.sequence: "QVQLVESGGGLVQAGGSLRLSCAASGRIFNLYAMGWYRQAPGKERELVAAINWSGDRTYYADSVKGRFTISRDNAKNTVYLQMYSLKPEDTAVYYCNADGLEIERYAYWYVFLGYDYWGQGTQVTVSS"
  polyreactivity (PSR sort gate): "low polyreactivity"
- macromolecule.sequence: "QAQLHESAGGLVQAGGCLRLSCAASGYFSKKWGMGWYRKAPGKERELVATIAKGASTYYADSMKGRFTISRDNAKYTMYRQMNSLKPEDTAVYYCGATQQDDQGLGYWGQDTQVTVSS"
  polyreactivity (PSR sort gate): "high polyreactivity"
